Kd reference
biological target: GCGR extracellular domain (human, UniProt P47871); assay: SPR
Sequence (P47871 26-477): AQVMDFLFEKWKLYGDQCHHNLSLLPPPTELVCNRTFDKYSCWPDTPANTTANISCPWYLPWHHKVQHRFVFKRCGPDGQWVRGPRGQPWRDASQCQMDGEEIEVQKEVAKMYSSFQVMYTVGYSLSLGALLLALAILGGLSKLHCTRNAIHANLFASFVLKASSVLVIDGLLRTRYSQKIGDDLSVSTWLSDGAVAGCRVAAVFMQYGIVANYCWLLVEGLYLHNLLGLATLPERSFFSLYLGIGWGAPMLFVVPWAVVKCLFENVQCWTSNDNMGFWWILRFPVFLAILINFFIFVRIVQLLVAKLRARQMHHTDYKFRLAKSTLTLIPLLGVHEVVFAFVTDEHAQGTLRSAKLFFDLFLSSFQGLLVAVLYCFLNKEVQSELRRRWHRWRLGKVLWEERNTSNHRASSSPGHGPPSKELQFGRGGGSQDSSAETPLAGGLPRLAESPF

- BINDER: "VH Y30H (antibody, V domains shown) VH: EVQLVESGGGLVQPGGSLRLSCAASGFNIHYNYIHWVRQAPGKGLEWVAEFSPYSGSTYYADSVKGRFTISADTSKNTAYLQMNSLRAEDTAVYYCARSAAIVDWYDYFKGFDYWGQGTLVTVSS VL: DIQMTQSPSSLSASVGDRVTITCRASQSVSSAVAWYQQKPGKAPKLLIYSASSLYSGVPSRFSGSRSGTDFTLTISSLQPEDFATYYCQQYGSYLYTFGQGTKVEIK"
  Kd: "5.14 nM"
- BINDER: "VH Y30N (antibody, V domains shown) VH: EVQLVESGGGLVQPGGSLRLSCAASGFNINYNYIHWVRQAPGKGLEWVAEFSPYSGSTYYADSVKGRFTISADTSKNTAYLQMNSLRAEDTAVYYCARSAAIVDWYDYFKGFDYWGQGTLVTVSS VL: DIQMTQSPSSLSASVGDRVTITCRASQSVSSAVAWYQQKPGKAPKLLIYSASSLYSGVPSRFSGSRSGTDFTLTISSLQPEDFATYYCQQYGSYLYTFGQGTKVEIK"
  Kd: "103 nM"
- BINDER: "VH V99K (antibody, V domains shown) VH: EVQLVESGGGLVQPGGSLRLSCAASGFNIYYNYIHWVRQAPGKGLEWVAEFSPYSGSTYYADSVKGRFTISADTSKNTAYLQMNSLRAEDTAVYYCARSAAIKDWYDYFKGFDYWGQGTLVTVSS VL: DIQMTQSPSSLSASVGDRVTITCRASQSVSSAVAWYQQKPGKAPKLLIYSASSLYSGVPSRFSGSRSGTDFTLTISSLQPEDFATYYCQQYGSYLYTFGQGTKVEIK"
  Kd: "17.3 nM"
